Recorded values, source a melting point compilation (Tetko et al.).

Reported metric: melting point (°C)

For orientation, consider the following solved cases.
NNc1ccc(Cl)cc1[N+](=O)[O-]    134
CCC(C)c1cc([N+](=O)[O-])cc([N+](=O)[O-])c1O (stereo unspecified)    40
O=C(NC(c1ccccc1)C(O)C(=O)O)c1ccccc1 (stereo unspecified)    170
COc1ccc(C=C2SC(=S)N(CNc3ccc([N+](=O)[O-])cc3)C2=O)cc1    176
CCC1OC(=O)C(C)C(OC2CC(C)(OC)C(O)C(C)O2)C(C)C(OC2OC(C)CC(N(C)C)C2O)C(C)(O)CC(C)C(=O)C(C)C(O)C1(C)O (stereo unspecified)    135

[a] COc1ccc(C(=O)c2cccc(Br)c2)cc1OC
[b] C#CC(O)COc1cccc(C(F)(F)F)c1 (stereo unspecified)
Between item a and item b , which reported melting point is smaller? Pick one and reply with its label.
b

###

Reported metric: melting point (°C)

NS(=O)(=O)c1c(F)cccc1F    190

[I] c1ccc(Sc2ccc3ccccc3n2)cc1
[II] O=C(O)Cc1cccnc1
Between item I and item II , which reported melting point is smaller? Pick one and reply with its label.
I

###

Reported metric: melting point (°C)

[P] O=C(O)c1cccc(Br)c1F
[Q] OCc1cc(O)ccc1O
[R] Cc1ccccc1F
Hi! Can you put these in order of melting point, lowest number first? Reply with the item labels sorted in the order that was asked for.
R, Q, P
(R: -62 °C, Q: 100 °C, P: 169 °C)

[A] OC(CCl)C(O)CCl (stereo unspecified)
[B] O=C(O)CCOc1ccc2c(c1)[nH]c1ccccc12
Determine, for A and B , which has the greater value of melting point. Pick one and reply with its label.
B

[I] O=C(CC(=O)C(F)(F)F)c1ccc2ccccc2c1
[II] CC1=C(C(=O)OCc2ccccc2)C(c2ccccc2)NC(=O)N1C (stereo unspecified)
[III] COc1ccc(C(=O)NNC(=O)c2cccc3ccccc23)cc1
[IV] BrCCOc1ccccc1
Put the entries in order of melting point, starting with the largest number. Reply with the item labels sorted in the order that was asked for.
III, II, I, IV
(III: 189 °C, II: 118 °C, I: 74 °C, IV: 39 °C)

[I] CCOc1ccc(-c2nnc3n2NC(c2ccc([N+](=O)[O-])cc2)S3)cc1 (stereo unspecified)
[II] BrC(CCC(Br)C(Br)c1ccccc1)C(Br)c1ccccc1 (stereo unspecified)
Determine, for I and II , which has the greater value of melting point. Pick one and reply with its label.
II

###

Reported metric: melting point (°C)

CC1CC(OC(=O)C(O)c2ccccc2)CC(C)(C)C1 (stereo not drawn)    56

[A] CCCCCCC(=O)OC
[B] O=[N+]([O-])/C(=C/c1ccccc1[N+](=O)[O-])c1ccccc1
Determine, for A and B , which has the greater value of melting point. Pick one and reply with its label.
B
(B: 107 °C, A: -56 °C)

[1] CCC(O)CN (stereo not drawn)
[2] COc1ccc(C(=O)c2nn3c(nc(=O)c4ccccc43)s2)cc1
Between item 1 and item 2 , which reported melting point is smaller? Pick one and reply with its label.
1

[a] Cc1cc(O)c2c(c1)C(=O)c1cccc(O)c1C2=O
[b] COC(=O)C1(S(=O)(=O)c2ccc(Br)cc2)CCC1
[c] CC(C)(C)C(CO)CO
Hey, quick one: sort these by melting point, low to high? Reply with the item labels sorted in the order that was asked for.
c, b, a
